Give measured MIC for each item. Keep answers brief.
System: Trichophyton rubrum
Test: In vitro evaluation of minimum inhibitory concentration against Trichophyton rubrum 90
Format: functional
Conditions: Trichophyton rubrum; read-out: MIC
I only need the number, in mg/L, no unit after it.

Request body: readout MIC, system Trichophyton rubrum, query CCC(C)n1ncn(-c2ccc(N3CCN(c4ccc(OC[C@H]5CO[C@](Cn6cncn6)(c6ccc(Cl)cc6Cl)O5)cc4)CC3)cc2)c1=O (some centres undefined) . Return the value.
0.63

Next up: C[C@H]1N(C(=O)c2ccc(C(F)(F)F)cc2)C[C@H](O)O[C@@]1(Cn1cncn1)c1ccc(Cl)cc1Cl (racemic)
40

====

Test system: Aspergillus flavus
Test: In vitro evaluation of minimum inhibitory concentration against Aspergillus flavus 19
Type: functional
Conditions: Aspergillus flavus; read-out: MIC
readout: MIC

Looking for the measured MIC of C[C@@H](NC(=O)c1ccc(C(F)(F)F)cc1)[C@](O)(Cn1cncn1)c1ccc(F)cc1F , can you help?
20 µg/mL

Try this molecule next: C[C@H]1N(C(=O)c2ccc(OC(F)(F)F)cc2)CC(=O)O[C@@]1(Cn1cncn1)c1ccc(F)cc1F (racemic)
> 80 µg/mL

Same question for C[C@H]1N(C(=O)c2ccc(C(F)(F)F)cc2)CCO[C@@]1(Cn1cncn1)c1ccc(F)cc1F (stereo in doubt) please.
> 80 µg/mL

Proceed to C[C@H]1N(C(=O)c2ccccc2)CCO[C@@]1(Cn1cncn1)c1ccccc1 (racemic)
> 80 µg/mL

Now the molecule OC(Cn1cncn1)(Cn1cncn1)c1ccc(F)cc1F
> 80 µg/mL

And the next one, C[C@H]1N(C(=O)c2ccc(C(F)(F)F)cc2)CC(=O)O[C@@]1(Cn1cncn1)c1ccc(F)cc1F (racemic) ?
> 80 µg/mL

Now the same for C[C@H]1N(C(=O)c2ccc(C(F)(F)F)cc2F)CC(=O)O[C@@]1(Cn1cncn1)c1ccc(F)cc1F (racemic)
> 80 µg/mL

Record: C[C@H]1N(C(=O)c2ccc(OCC(F)(F)F)cc2)CC(=O)O[C@@]1(Cn1cncn1)c1ccc(F)cc1F (racemic)
> 80 µg/mL

====

Test system: Mus sp.
Assay: In vivo evaluation of % survival rate after peroral administration on 7th day at dose 2.5 mg/kg
Type: functional
Details: Mus sp., po
For each of the molecules below, state its survival at 2.5 mg/kg.
Just the number in %, nothing appended.

Consider the molecule shown here: C[C@@H](NC(=O)c1ccc(C(F)(F)F)cc1)[C@](O)(Cn1cncn1)c1ccc(F)cc1F (racemic) What is its recorded survival at 2.5 mg/kg?
100

Can you handle C[C@H]1N(C(=O)c2ccc(OCC(F)(F)C(F)F)cc2)CC(=O)O[C@@]1(Cn1cncn1)c1ccc(Cl)cc1Cl (racemic) next?
80

Also C[C@H]1N(C(=O)c2ccc(C(F)(F)F)cc2F)CC(=O)O[C@@]1(Cn1cncn1)c1ccc(F)cc1F (racemic) , if possible.
100

Moving on to the next molecule: OC(Cn1cncn1)(Cn1cncn1)c1ccc(F)cc1F
95

Repeat for the following molecule: C[C@H]1N(C(=O)c2ccc(OCC(F)(F)F)cc2)CC(=O)O[C@@]1(Cn1cncn1)c1ccc(F)cc1F (racemic)
100

Further, for C[C@H]1N(C(=O)c2ccc(C(F)(F)F)cc2)CC(=O)O[C@@]1(Cn1cncn1)c1ccc(Cl)cc1Cl (racemic) ?
100

Then what about the molecule C[C@H]1N(C(=O)c2ccc(OC(F)(F)F)cc2)CC(=O)O[C@@]1(Cn1cncn1)c1ccc(F)cc1F (racemic) ?
100

C[C@H]1N(C(=O)c2ccc(C(F)(F)F)cc2)C[C@H](O)O[C@@]1(Cn1cncn1)c1ccc(F)cc1F (racemic) , same question.
100

Now consider C[C@H]1N(C(=O)c2ccc(C(F)(F)F)cc2)CC(=O)O[C@@]1(Cn1cncn1)c1ccc(F)cc1F (racemic) .
95

Would you mind doing C[C@H]1N(C(=O)c2ccc(C(F)(F)F)cc2)CC(=O)O[C@@]1(Cn1cncn1)c1ccc(C(F)(F)F)cc1 (racemic) as well?
10

Next: C[C@H]1N(C(=O)c2ccc(C(F)(F)F)cc2)C[C@H](O)O[C@@]1(Cn1cncn1)c1ccc(Cl)cc1Cl (racemic)
100

Can you check C[C@H]1N(C(=O)c2ccc(OCC(F)(F)C(F)F)cc2)CC(=O)O[C@@]1(Cn1cncn1)c1ccc(F)cc1F (racemic) next?
90

Please do the same for C[C@H]1N(C(=O)c2ccccc2)CCO[C@@]1(Cn1cncn1)c1ccccc1 (racemic) as well.
0

====

For each entry below, report its survival at 2.5 mg/kg value.
Test system: Mus sp.
Experiment: In vivo evaluation of % survival rate after peroral administration on 3rd day at dose 2.5 mg/kg
Format: functional
Conditions: Mus sp., po
Expressed in %, but write only the number.

// lookup survival at 2.5 mg/kg for C[C@H]1N(C(=O)c2ccc(OC(F)(F)F)cc2)CC(=O)O[C@@]1(Cn1cncn1)c1ccc(F)cc1F (racemic)
100

And for C[C@H]1N(C(=O)c2ccc(C(F)(F)F)cc2)C[C@H](O)O[C@@]1(Cn1cncn1)c1ccc(Cl)cc1Cl (racemic) ?
100

Another compound to check: C[C@H]1N(C(=O)c2ccc(C(F)(F)F)cc2)CC(=O)O[C@@]1(Cn1cncn1)c1ccc(F)cc1F (racemic)
100

Then what about the compound C[C@H]1N(C(=O)c2ccccc2)CCO[C@@]1(Cn1cncn1)c1ccccc1 (racemic) ?
40

Note, next up: C[C@H]1N(C(=O)c2ccc(C(F)(F)F)cc2)CC(=O)O[C@@]1(Cn1cncn1)c1ccc(Cl)cc1Cl (racemic)
100

Moving on to C[C@@H](NC(=O)c1ccc(C(F)(F)F)cc1)[C@](O)(Cn1cncn1)c1ccc(F)cc1F (racemic)
100

====

Tested on: Aspergillus flavus
Test: In vitro evaluation of minimum inhibitory concentration against Aspergillus flavus 19
Assay type: functional
Conditions: Aspergillus flavus; read-out: MIC
Consider the following compounds; for each one, report its MIC.

Form field: reported MIC of C[C@H]1N(C(=O)c2ccc(OCC(F)(F)C(F)F)cc2)CC(=O)O[C@@]1(Cn1cncn1)c1ccc(Cl)cc1Cl (racemic)
> 80 µg/mL

Do the same for C[C@H]1N(C(=O)c2ccc(C(F)(F)F)cc2)CC(=O)O[C@@]1(Cn1cncn1)c1ccc(Cl)cc1Cl (stereo in doubt; (-)-32a) please
> 80 µg/mL

Repeat with CC(=O)N1CCN(c2ccc(OC[C@H]3CO[C@](Cn4ccnc4)(c4ccc(Cl)cc4Cl)O3)cc2)CC1 [KETOCONAZOLE]
2.5 µg/mL

Then this compound: C[C@H]1N(C(=O)c2ccc(OCC(F)(F)C(F)F)cc2)C[C@H](O)O[C@@]1(Cn1cncn1)c1ccc(F)cc1F (racemic)
> 80 µg/mL

# iterate: C[C@H]1N(C(=O)c2ccc(C(F)(F)F)cc2)C[C@H](O)O[C@@]1(Cn1cncn1)c1ccc(F)cc1F (stereo in doubt; (-)-39a)
> 80 µg/mL

Next record, please: C[C@H]1N(C(=O)c2ccc(OCC(F)(F)C(F)F)cc2)CC(=O)O[C@@]1(Cn1cncn1)c1ccc(F)cc1F (racemic)
> 80 µg/mL

Follow-up entry: C[C@H]1N(C(=O)c2ccc(C(F)(F)F)cc2)CC(=O)O[C@@]1(Cn1cncn1)c1ccc(C(F)(F)F)cc1 (racemic)
> 80 µg/mL

Same question, C[C@H]1N(C(=O)c2ccc(C(F)(F)F)cc2)C[C@H](O)O[C@@]1(Cn1cncn1)c1ccc(Cl)cc1Cl (racemic) this time
20 µg/mL

Continue with CCC(C)n1ncn(-c2ccc(N3CCN(c4ccc(OC[C@H]5CO[C@](Cn6cncn6)(c6ccc(Cl)cc6Cl)O5)cc4)CC3)cc2)c1=O (some centres undefined) [ITRACONAZOLE]
> 80 µg/mL

====

Tested on: Candida albicans
Assay: […] Evaluation of minimum inhibitory concentration against Candida albicans 60
Format: functional
readout: MIC (µg/mL)
The response must be a number in µg/mL with no trailing unit.

Sample C[C@@H](NC(=O)c1ccc(C(F)(F)F)cc1)[C@](O)(Cn1cncn1)c1ccc(F)cc1F (racemic) — what was its MIC?
0.63

// query: C[C@H]1N(C(=O)c2ccc(C(F)(F)F)cc2)CC(=O)O[C@@]1(Cn1cncn1)c1ccc(Cl)cc1Cl (racemic)
10

And OC(Cn1cncn1)(Cn1cncn1)c1ccc(F)cc1F ?
2.5

Similarly, CCC(C)n1ncn(-c2ccc(N3CCN(c4ccc(OC[C@H]5CO[C@](Cn6cncn6)(c6ccc(Cl)cc6Cl)O5)cc4)CC3)cc2)c1=O (stereo not given in full) ?
0.07

====

Tested on: Trichophyton rubrum
Assay: In vitro evaluation of minimum inhibitory concentration against Trichophyton rubrum 90
Format: functional
Settings: Trichophyton rubrum; read-out: MIC
Please go through the items and note down their MIC.

Recorded MIC of CC(=O)N1CCN(c2ccc(OC[C@H]3CO[C@](Cn4ccnc4)(c4ccc(Cl)cc4Cl)O3)cc2)CC1 , please.
1.25 µg/mL

What do you get for C[C@H]1N(C(=O)c2ccc(OCC(F)(F)F)cc2)CC(=O)O[C@@]1(Cn1cncn1)c1ccc(F)cc1F (racemic) ?
> 80 µg/mL

Check C[C@H]1N(C(=O)c2ccc(C(F)(F)F)cc2F)CC(=O)O[C@@]1(Cn1cncn1)c1ccc(F)cc1F (racemic) too.
> 80 µg/mL

// query: C[C@H]1N(C(=O)c2ccc(C(F)(F)F)cc2)CC(=O)O[C@@]1(Cn1cncn1)c1ccc(C(F)(F)F)cc1 (racemic)
> 80 µg/mL

Subsequent entry: C[C@H]1N(C(=O)c2ccc(C(F)(F)F)cc2)CC(=O)O[C@@]1(Cn1cncn1)c1ccc(F)cc1F (racemic)
> 80 µg/mL

Follow-up entry: OC(Cn1cncn1)(Cn1cncn1)c1ccc(F)cc1F
> 80 µg/mL

Queued: C[C@H]1N(C(=O)c2ccc(C(F)(F)F)cc2)C[C@H](O)O[C@@]1(Cn1cncn1)c1ccc(F)cc1F (stereo in doubt; (-)-39a)
40 µg/mL
